- target-entity: T1, ST2 on the effector cells (KU812, KU812/NF-κB-1#, HUVEC, HMC-1) (human, UniProt Q01638 19-556)
- T1 sequence (looked up): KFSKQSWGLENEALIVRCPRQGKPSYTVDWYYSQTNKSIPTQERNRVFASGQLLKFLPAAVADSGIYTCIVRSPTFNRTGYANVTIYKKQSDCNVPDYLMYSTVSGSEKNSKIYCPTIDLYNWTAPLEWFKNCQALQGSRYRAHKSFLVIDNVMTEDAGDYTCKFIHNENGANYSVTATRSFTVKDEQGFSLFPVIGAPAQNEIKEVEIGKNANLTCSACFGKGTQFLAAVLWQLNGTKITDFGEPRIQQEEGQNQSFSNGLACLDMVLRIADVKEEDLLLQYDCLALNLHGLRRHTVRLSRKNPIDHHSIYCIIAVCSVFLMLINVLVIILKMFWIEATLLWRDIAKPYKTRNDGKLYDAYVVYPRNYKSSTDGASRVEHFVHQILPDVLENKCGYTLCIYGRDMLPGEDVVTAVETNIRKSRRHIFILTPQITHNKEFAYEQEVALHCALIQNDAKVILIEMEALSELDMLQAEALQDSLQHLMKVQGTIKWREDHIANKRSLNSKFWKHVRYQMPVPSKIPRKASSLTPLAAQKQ
- test: cell-based or functional assay
Here, each record is paired with measured Relative activity, HUVEC-IL6 production by IL33 data.
Field: numeric (%). Do not append units.

Please review the following examples before continuing.
INSERT INTO results (binder, value) VALUES
  ('5888-379-H1L0 (antibody, human IgG4 S228P, kappa, V domains shown, Humanized antibody) VH: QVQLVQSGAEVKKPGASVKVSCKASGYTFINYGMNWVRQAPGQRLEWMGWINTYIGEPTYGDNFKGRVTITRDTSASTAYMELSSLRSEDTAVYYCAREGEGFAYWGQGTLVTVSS VL: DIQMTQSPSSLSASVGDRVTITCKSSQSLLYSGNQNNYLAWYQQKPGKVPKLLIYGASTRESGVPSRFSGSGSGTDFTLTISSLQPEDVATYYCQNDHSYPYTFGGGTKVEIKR', 16.9),
  ('5888-153-H0L1 (antibody, human IgG4 S228P, kappa, V domains shown, Humanized antibody) VH: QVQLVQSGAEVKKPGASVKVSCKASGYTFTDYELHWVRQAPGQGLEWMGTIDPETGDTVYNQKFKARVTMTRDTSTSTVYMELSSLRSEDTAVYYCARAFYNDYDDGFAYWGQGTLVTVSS VL: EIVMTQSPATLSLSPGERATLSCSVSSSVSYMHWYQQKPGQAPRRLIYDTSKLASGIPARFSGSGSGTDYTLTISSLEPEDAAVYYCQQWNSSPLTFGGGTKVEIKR', 323);

Then this binder:
For reference, reported Relative activity, HUVEC-IL6 production by IL33 for 5888-153-H3L2 (antibody, human IgG4 S228P, kappa, V domains shown, Humanized antibody) VH: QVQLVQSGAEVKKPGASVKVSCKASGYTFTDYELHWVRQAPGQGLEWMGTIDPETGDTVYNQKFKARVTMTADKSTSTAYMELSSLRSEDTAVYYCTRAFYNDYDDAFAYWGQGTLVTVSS VL: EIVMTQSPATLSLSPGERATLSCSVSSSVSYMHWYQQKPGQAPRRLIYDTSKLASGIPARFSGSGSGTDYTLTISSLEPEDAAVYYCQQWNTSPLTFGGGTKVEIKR stands at 73.9

All values here come from patent US12624112.
